Would you kindly list fraction ligated for each of these variants?
B1: minF1; a variant is named by its letters at N, in order (parent)
chain: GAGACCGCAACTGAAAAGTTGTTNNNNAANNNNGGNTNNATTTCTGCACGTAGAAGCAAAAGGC

variants of: B1; experiment: fraction ligated after 30 min (ligated reads / total reads); higher = more ligase activity; settings: with F1*subA RNA substrate (template-directed ligation), 42 °C
Answer field: number only, no words.

Request the reported fraction ligated associated with ACAGGGTGTGA
0.00435

Try this variant next: TCAAGATGTGA A29G
0.0031

Try this variant next: TCAGATGGGTT G34T T37G
0.00104

Try this variant next: ATCGAGATGTA
0.00349

Try this variant next: TAGAGGATTGA T23A
0.00191

Try this variant next: ATCATGGTGTA
0.00395

Try this variant next: ATGAGATGTGA A29G
0.00416

Try this variant next: TCAGGGTGTGA T23A
0.00148

Try this variant next: ATCGTGAGTGA
0.00262

Try this variant next: ATCAATGAGTA A28G G34T
0.00248

Try this variant next: TCGAGGATGTG T23A A29T
0.0128

Try this variant next: ATCGAGGAGTT G34T T37G
0.00239

Try this variant next: ATCATGGAGTG G34T
0.0119

Try this variant next: TCAATGGTGTG
0.00437

Try this variant next: ACAGATATTGA
0.0012

Try this variant next: ATCAAATGGTG A28G G34A
0.00551

Try this variant next: ATCAAGATTGA A28G
0.00251

Try this variant next: AAGAGATGTGA A28T A29G
0.00397

Try this variant next: TGAAGGATTGA T23A A29T
0.00566

Try this variant next: TCAGGGATTGA T23A
0.000376

Try this variant next: ATCATGATGTG
0.0143

Try this variant next: TCAGATGATGA
0.00144

Try this variant next: ATCAATGTGTA
0.00707

Try this variant next: ACAGGGATGTA A29T
0.00654

Try this variant next: ATAAGGATGTA
0.00287

Try this variant next: TCAGATGGGTG
0.005

Try this variant next: CAGATATGTGA T23A
0.00265

Try this variant next: TCAATGATGTA T23A
0.00393

Try this variant next: CAGATGGAGTT G34T T37G
0.0026

Try this variant next: CGAAGGATGTA T23A A29T
0.0054

Try this variant next: TGAAGGATGTG T23A A29T
0.00766

Try this variant next: ATCAAGGGTGA A28G
0.00483

Try this variant next: ACAATGGAGTT G34T T37G
0.00166

Try this variant next: CAGAGGATTGA T23A A29T
0.00274

Try this variant next: ATCAAGTGTGA
0.00229

Try this variant next: TCAATGATTGA
0.00117

Try this variant next: TAAAGGATGTA A29T
0.00265

Try this variant next: TCAGATGGGTT G34A G35T T37G A40G
0.000594

Try this variant next: AAAAGATGTGA A29G
0.00274

Try this variant next: TCAGAGGAGTA
0

Try this variant next: ATCAAGGAGTT G34T T37G A40G
0.00198

Try this variant next: CAGATGGAGTG
0.00678

Try this variant next: ATCAATGAGTT G34T T37G
0.00278

Try this variant next: ACAGTGGTGTA
0.000648

Try this variant next: ACAAGGATGTA
0.00108

Try this variant next: TCGAGGAGTGA A29T
0.00284

Try this variant next: ATCAAGGATGA A28G
0.000468

Try this variant next: TCGAGGATGTA T23A
0.0024

Try this variant next: ACGATGGGTGA
0.00155

Try this variant next: ATCAAATAGTT A28G G34T T37G A40G
0.0013

Try this variant next: TCAGAGATGTG
0.0039

Try this variant next: CAGATGGGTGA T23A
0.00475

Try this variant next: ATAGAGAGTGA
0.000691

Try this variant next: TAGAGGAGTGA T23A
0.0026

Try this variant next: ACGAGATGTGA A29T
0.00193

Try this variant next: ACGAGATGTGA A28T A29G
0.00619

Try this variant next: ATAGTGGTGTA
0.0012

Try this variant next: ATAGAGGAGTG G34T
0.0028

Try this variant next: ACAGGGATGTA
0.00263

Try this variant next: ATAGAGATGTA
0.00327

Try this variant next: ATAAGGAGTGA
0.000696

Try this variant next: ACAGTGGAGTG
0.00883

Try this variant next: CAGAGGAGTGA T23A
0.00148

Try this variant next: TCAGGGTGTGA T23A A29T
0.00472

Try this variant next: AAGATGGAGTG
0.00495

Try this variant next: AAGAGGAGTGA
0.00337

Try this variant next: ATAAGGTGTGA
0.00238

Try this variant next: CAGATGAGTGA
0.00146

Try this variant next: CAGATGGAGTA T23A G34T
0.00843

Try this variant next: ATCATGGTGTG
0.00925

Try this variant next: TAAAGGTGTGA A29T
0.0019

Try this variant next: ATCGTGGATGA
0.00177

Try this variant next: TCAGATGGGTA G34T
0.00105

Try this variant next: TCGAGGATGTG
0.00804

Try this variant next: ATCGTGGAGTA
0.00217

Try this variant next: ATCAGGTGTGA A29T
0.00874

Try this variant next: ACAGGGATTGA
0.00266

Try this variant next: CAGATGGATGA T23A
0.00203

Try this variant next: ACAGAGAGTGA
0.00105

Try this variant next: ATAGATGGGGT G34A G35T T37G A40T
0.00172

Try this variant next: ATAGATGGGTA
0.00171

Try this variant next: ATCGATGAGTG G34T
0.0033

Try this variant next: ACAAGGTGTGA
0.00367

Try this variant next: ATAAGATGTGA A28T A29G
0.0107

Try this variant next: TCAATGATGTG
0.0049

Try this variant next: TCAATGGAGTT T23A G34T T37G A40G
0.00124

Try this variant next: TCAGATGAGTA T23A G34T
0.00285

Try this variant next: ACAGTGGTTGA
0.00127

Try this variant next: ATCAAAGAGTG A28G
0.00384

Try this variant next: ATAGGGATGTA
0.0024

Try this variant next: CAGAGATGTGA
0.00372
